System: peripheral blood mononuclear cells (PBMC), T cells
Assay: ELISpot assay, gamma-interferon release (SFC) after stimulation with a-synuclein epitope pools
Format: cell-based, human
Conditions: Patients Summary; PD patients; of donors tested (peptide)
// reported IFNg Peptide + (donors positive to the peptide) per item
Outcome measure: IFNg Peptide + (donors positive to the peptide)

Substance | Recorded value
3521.0003 (SIAAATGFV; listed as Homo sapiens) | 0
3521.0031 (YVGSKTKEGV; listed as Homo sapiens) | 1
3521.0027 (AYEMPSEEGY; listed as Homo sapiens) | 0
3521.0064 (GVVHGVATV; listed as Homo sapiens) | 0
3521.0014 (KTVEGAGSI; listed as Homo sapiens) | 0
3521.0049 (APQEGILEDM; listed as Homo sapiens) | 0
3521.0055 (QEGILEDMPV; listed as Homo sapiens) | 0
3521.0076 (PGKTKEGVLYVGSKT; listed as Homo sapiens) | 2
3521.0004 (KTKEGVLYV; listed as Homo sapiens) | 0
3521.006 (VATVAEKTKE; listed as Homo sapiens) | 0
3521.0078 (YVGSKTKKGVVHGVA; listed as Homo sapiens) | 1
3521.002 (AGKTKEGVL; listed as Homo sapiens) | 1
3521.0051 (EEGAPQEGIL; listed as Homo sapiens) | 1
3521.0052 (KTKQGVAEAA; listed as Homo sapiens) | 0
3521.0016 (DVFMKGLSK; listed as Homo sapiens) | 0
3521.0071 (YVGSKTKEGVVHGVT; listed as Homo sapiens) | 0
3521.0073 (TTVAEKTKEQVTNVG; listed as Homo sapiens) | 0
3521.0044 (GVTAVAQKTV; listed as Homo sapiens) | 0
3521.0069 (GVAEAAGKTK; listed as Homo sapiens) | 1
3521.0077 (KTKEGVLYVGSKTKK; listed as Homo sapiens) | 5
3521.0058 (SEEGYQDYEP; listed as Homo sapiens) | 0

Origin of values: patent US20170184612A1
